- target-of-assay: HIV-1 JR-CSF Env N411A (HIV-1 (isolate JR-CSF)) (UniProt P20871)
- measurement-description: cell-based or functional assay
reported-property: Fold IC50 increase relative to wild-type
Please answer using the number first and the unit second.

Field Fold IC50 increase relative to wild-type (entry PGT-135 (antibody, V domains shown) VH: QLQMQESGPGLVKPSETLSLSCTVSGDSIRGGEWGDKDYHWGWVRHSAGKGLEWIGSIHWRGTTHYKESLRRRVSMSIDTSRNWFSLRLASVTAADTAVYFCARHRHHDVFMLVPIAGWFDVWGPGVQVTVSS VL: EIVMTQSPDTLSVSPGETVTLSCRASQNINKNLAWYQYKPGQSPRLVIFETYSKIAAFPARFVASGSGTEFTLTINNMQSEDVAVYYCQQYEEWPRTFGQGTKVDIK ) reads 0.2 fold

These measurements were taken from patent US20200024330A1.
